PROTOCOL_SUMMARY: viability profiling in RPMI8226 myeloma cells – cell-based, resazurin fluorescence, basal, 24 h, PK04 Diversity Set, profiling panel (AID 1180);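 note: RPMI8826 multiple myeloma cell line at 5000 cells per well; test concentration not given here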
TEST_CONTEXT: higher = more signal; RPMI8226 viability, resazurin fluorescence, 24 h unless noted
Hi! Could you tag entries with z-score below -0.3 as y, and those at or above as n? Much appreciated.

molecule=CCOC(=O)[C@H]1CC=C2C(=O)Oc3ccccc3[C@@H]21 assigned_label=y
molecule=CCOC(=O)[C@H]1CC=C2C(=O)Oc3ccc(Br)cc3[C@@H]21 assigned_label=n
molecule=COC(=O)[C@@]1(Cc2ccccc2)[C@H]2c3cc(C(=O)N(C)C)n(C)c3C[C@H]2CN1C(=O)c1ccccc1 assigned_label=n
molecule=C[C@H]1O[C@H]2C3=C(C(=O)[C@@H]4O[C@@H]4[C@@H]3O)[C@@H]1[C@@H]1[C@@H](C)OC=C3[C@@H](O)[C@H]4O[C@H]4C(=O)[C@]312 assigned_label=y
molecule=COC(=O)NCC=Cc1nc(CCC=CC(=O)O[C@H]2CC3CC(=O)O[C@@H](C=CCC(C)C)C[C@@H]4CC[C@H](C)[C@@H](C[C@@H](OC)C[C@H](C2)O3)O4)co1 assigned_label=y
molecule=COC(=O)[C@H]1[C@@H](O)[C@@]2(O)c3c(OC)cc(OC)cc3O[C@@]2(c2ccc(OC)cc2)[C@@H]1c1ccccc1 assigned_label=y
molecule="CCCc1cc2c(n1CCO)C(C)C1CN(C(=O)c3ccccc3)C(C)(C(=O)OC)C21 (stereo not given)" assigned_label=y
molecule=COC(=O)[C@H]1[C@H](c2ccccc2)C(=O)[C@]2(O)c3ccccc3O[C@@]12c1ccccc1 assigned_label=y
molecule="CN1CCC(c2ccc(CO)cc2)=CC1C1CC1 (stereo not given)" assigned_label=y
molecule=CCCC=C(CCC)[C@@H](NP(=O)(c1ccccc1)c1ccccc1)c1ccccc1 assigned_label=n

# input Just wondering, is z-score of COc1cc2c(cc1O)C(C)N(C)CC2 (stereo not given) below -0.3?
# output n

# input is_below(z-score, -0.3) for C=C(CC1(C(C)NP(=O)(c2ccccc2)c2ccccc2)CC1)c1ccccc1 (stereo not given) ?
# output n

# input Determine if O=P(c1ccccc1)(c1ccccc1)N1CC2(CC2)CC(O)(c2ccccc2)C1 (stereo not given) shows z-score strictly lower than -0.3.
# output y

# input State whether -0.3 exceeds z-score recorded for CCCc1cc2c(n1Cc1ccco1)C(C)C1CN(C(=O)c3ccccc3)C(C)(C(=O)OC)C21 (stereo not given) .
# output y

# input Hello, I'm reviewing records and need to know if z-score of COC(=O)[C@H]1C(=O)c2ccccc2O[C@@](C(=O)OC)(c2ccccc2)[C@@H]1c1ccccc1 is below -0.3. Could you check?
# output n

# input API: query returns whether the molecule falls strictly under -0.3 in z-score. Query: CCCc1cc2c(n1Cc1ccc(C)cc1)C(C)C1CN(C(=O)c3ccccc3)C(C)(C(=O)OC)C21 (stereo not given)
# output y

# input Does C=C(CC1(CNP(=O)(c2ccccc2)c2ccccc2)CC1)c1ccccc1 have z-score strictly under -0.3?
# output y

# input Is z-score of OCc1ccc(C2=CC(c3cccs3)N(Cc3cccc(OC(F)(F)F)c3)CC2)cc1 (stereo not given) strictly below -0.3?
# output n

# input Given C[C@@H]1Cc2c(cnc3c2CN(C)CC3)CO1 , is recorded z-score strictly lower than -0.3?
# output n

# input Consider the molecule CCCC[C@@H]1C[C@H]1[C@@H](NP(=O)(c1ccccc1)c1ccccc1)c1ccc(Cl)cc1 . Is its z-score strictly less than -0.3?
# output n
